# Test system: HGGX39 (paediatric high-grade glioma line)
# assay_details: growth inhibition (% activity, log2 RLU normalised to DMSO / staurosporine); higher = more growth inhibition
# cond: 33 µM
Measured growth inhibition by item
# output: bare number, implied unit %

Worked set:
INSERT INTO results (compound, units_symbol, endpoint_value) VALUES
  ('C=CC[N+]1([C@H]2C[C@H]3[C@@H]4CC[C@H]5C[C@H](O)[C@@H](N6CCOCC6)C[C@]5(C)[C@H]4CC[C@]3(C)[C@H]2OC(C)=O)CCCC1', '%', 4.24),
  ('CN1CCN(CCCN2c3ccccc3Sc3ccc(C(F)(F)F)cc32)CC1', '%', 7.39),
  ('CC(C)(O)c1ccccc1CC[C@@H](SCC1(CC(=O)O)CC1)c1cccc(/C=C/c2ccc3ccc(Cl)cc3n2)c1', '%', -0.172),
  ('CCCc1nc2c(C)cc(-c3nc4ccccc4n3C)cc2n1Cc1ccc(-c2ccccc2C(=O)O)cc1', '%', -1.04),
  ('NS(=O)(=O)c1cc2c(cc1C(F)(F)F)NC(Cc1ccccc1)NS2(=O)=O (centres undefined)', '%', -0.621),
  ('NCCC(O)(P(=O)(O)O)P(=O)(O)O', '%', 2.9),
  ('COc1cc2nc(N(C)CCCNC(=O)C3CCCO3)nc(N)c2cc1OC (centres undefined)', '%', -0.734),
  ('O=C(CCCCCCC(=O)Nc1ccccc1)NO', '%', 18.5);

Which growth inhibition reading was recorded for the compound `COc1ccc2cc1Oc1ccc(cc1)C[C@H]1c3c(cc4c(c3Oc3cc5c(cc3OC)CCN(C)[C@@H]5C2)OCO4)CCN1C` ?
3.95

Given `O=c1ccc2ccccc2o1` , state its recorded growth inhibition.
1.94

growth inhibition for `C[C@]12C=CC(=O)C=C1CC[C@@H]1[C@@H]2[C@@H](O)C[C@@]2(C)[C@H]1CC[C@]2(O)C(=O)CO` ?
1.22

Fill in: growth inhibition of `C=C1/C(=C\C=C2/CCC[C@]3(C)[C@@H]([C@H](C)/C=C/[C@H](C)C(C)C)CC[C@@H]23)C[C@@H](O)C[C@@H]1O` is ___
3.71

Query: growth inhibition; subject: `COc1cc2c(cc1OC)CC(=O)N(CCCN(C)C[C@H]1Cc3cc(OC)c(OC)cc31)CC2`
2.26

Param item = `CCCSc1ccc2[nH]c(NC(=O)OC)nc2c1` ; retrieve measured growth inhibition.
15.5

Reported growth inhibition, compound `Cc1onc(-c2ccccc2Cl)c1C(=O)N[C@@H]1C(=O)N2[C@@H]1SC(C)(C)[C@@H]2C(=O)O` : ____
-0.725

Please report the recorded growth inhibition for `C[N+](C)(CCOc1ccccc1)Cc1ccccc1.O=C([O-])c1cc2ccccc2cc1O` .
-1.29

For the compound shown here, `CCCCC1C(=O)N(c2ccccc2)N(c2ccccc2)C1=O` , give the reported growth inhibition.
-1.47

Please report the recorded growth inhibition for `O=C(Nc1ccccc1)c1ccccc1O` .
3.96

So what does the record say about growth inhibition for `CC(=O)[C@H]1CC[C@H]2[C@@H]3C=CC4=CC(=O)CC[C@@]4(C)[C@@H]3CC[C@]12C` ?
1.86

###

# Tested on: HGGX6 (H3.3 G34R paediatric high-grade glioma line)
# assay_details: growth inhibition (% activity, log2 RLU normalised to DMSO / staurosporine); higher = more growth inhibition
# cond: 33 µM
Measured growth inhibition by item
Answer with the number, then the unit.

Solved cases (2 shown):
INSERT INTO measurements (compound, endpoint_value) VALUES
  ('CC(C)OC(=O)C(C(=O)OC(C)C)=C1SC=CS1', '13.3%'),
  ('CCCCc1nc(Cl)c(CO)n1Cc1ccc(-c2ccccc2-c2nnn[nH]2)cc1', '1.5%');

So what does the record say about growth inhibition for `C=C[C@]1(C)C[C@@H](OC(=O)CS[C@@H]2C[C@H]3CC[C@@H](C2)N3C)[C@]2(C)[C@H](C)CC[C@]3(CCC(=O)[C@H]32)[C@@H](C)[C@@H]1O` ?
5.9%

Sample `C#C[C@]1(OC(C)=O)CC[C@H]2[C@@H]3CCC4=C[C@@H](OC(C)=O)CC[C@@H]4[C@H]3CC[C@@]21C` — what was its growth inhibition?
0.0724%

# query: growth inhibition of entry CN1CCCC(n2nc(Cc3ccc(Cl)cc3)c3ccccc3c2=O)CC1 (stereo not given)
3.65%

I'd like to know its growth inhibition. The compound in question is Nc1ncn(C2OC(CO)C(O)C2O)c(=O)n1 (stereo not given)
1.61%

What value of growth inhibition has been recorded for this entry: CCN(CC)CCCC(C)Nc1ccnc2cc(Cl)ccc12 (stereo not given)
2.74%

Entry CN1CCOC(c2ccccc2)c2ccccc2C1 (stereo not given) : reported growth inhibition = ?
-4.34%

I would be grateful if you could share the reported growth inhibition for `Cc1nnc(C(=O)NC(C)(C)c2nc(C(=O)NCc3ccc(F)cc3)c(O)c(=O)n2C)o1` .
-0.564%

Look at this compound and give its reported growth inhibition. `Cc1c(C(=O)NN2CCCCC2)nn(-c2ccc(Cl)cc2Cl)c1-c1ccc(Cl)cc1`
-2.08%
